Numbers sourced from patent US20230073777A1.

# Assay System: P300 (Homo sapiens, UniProt Q09472)
# Sequence (Q09472 whole entry): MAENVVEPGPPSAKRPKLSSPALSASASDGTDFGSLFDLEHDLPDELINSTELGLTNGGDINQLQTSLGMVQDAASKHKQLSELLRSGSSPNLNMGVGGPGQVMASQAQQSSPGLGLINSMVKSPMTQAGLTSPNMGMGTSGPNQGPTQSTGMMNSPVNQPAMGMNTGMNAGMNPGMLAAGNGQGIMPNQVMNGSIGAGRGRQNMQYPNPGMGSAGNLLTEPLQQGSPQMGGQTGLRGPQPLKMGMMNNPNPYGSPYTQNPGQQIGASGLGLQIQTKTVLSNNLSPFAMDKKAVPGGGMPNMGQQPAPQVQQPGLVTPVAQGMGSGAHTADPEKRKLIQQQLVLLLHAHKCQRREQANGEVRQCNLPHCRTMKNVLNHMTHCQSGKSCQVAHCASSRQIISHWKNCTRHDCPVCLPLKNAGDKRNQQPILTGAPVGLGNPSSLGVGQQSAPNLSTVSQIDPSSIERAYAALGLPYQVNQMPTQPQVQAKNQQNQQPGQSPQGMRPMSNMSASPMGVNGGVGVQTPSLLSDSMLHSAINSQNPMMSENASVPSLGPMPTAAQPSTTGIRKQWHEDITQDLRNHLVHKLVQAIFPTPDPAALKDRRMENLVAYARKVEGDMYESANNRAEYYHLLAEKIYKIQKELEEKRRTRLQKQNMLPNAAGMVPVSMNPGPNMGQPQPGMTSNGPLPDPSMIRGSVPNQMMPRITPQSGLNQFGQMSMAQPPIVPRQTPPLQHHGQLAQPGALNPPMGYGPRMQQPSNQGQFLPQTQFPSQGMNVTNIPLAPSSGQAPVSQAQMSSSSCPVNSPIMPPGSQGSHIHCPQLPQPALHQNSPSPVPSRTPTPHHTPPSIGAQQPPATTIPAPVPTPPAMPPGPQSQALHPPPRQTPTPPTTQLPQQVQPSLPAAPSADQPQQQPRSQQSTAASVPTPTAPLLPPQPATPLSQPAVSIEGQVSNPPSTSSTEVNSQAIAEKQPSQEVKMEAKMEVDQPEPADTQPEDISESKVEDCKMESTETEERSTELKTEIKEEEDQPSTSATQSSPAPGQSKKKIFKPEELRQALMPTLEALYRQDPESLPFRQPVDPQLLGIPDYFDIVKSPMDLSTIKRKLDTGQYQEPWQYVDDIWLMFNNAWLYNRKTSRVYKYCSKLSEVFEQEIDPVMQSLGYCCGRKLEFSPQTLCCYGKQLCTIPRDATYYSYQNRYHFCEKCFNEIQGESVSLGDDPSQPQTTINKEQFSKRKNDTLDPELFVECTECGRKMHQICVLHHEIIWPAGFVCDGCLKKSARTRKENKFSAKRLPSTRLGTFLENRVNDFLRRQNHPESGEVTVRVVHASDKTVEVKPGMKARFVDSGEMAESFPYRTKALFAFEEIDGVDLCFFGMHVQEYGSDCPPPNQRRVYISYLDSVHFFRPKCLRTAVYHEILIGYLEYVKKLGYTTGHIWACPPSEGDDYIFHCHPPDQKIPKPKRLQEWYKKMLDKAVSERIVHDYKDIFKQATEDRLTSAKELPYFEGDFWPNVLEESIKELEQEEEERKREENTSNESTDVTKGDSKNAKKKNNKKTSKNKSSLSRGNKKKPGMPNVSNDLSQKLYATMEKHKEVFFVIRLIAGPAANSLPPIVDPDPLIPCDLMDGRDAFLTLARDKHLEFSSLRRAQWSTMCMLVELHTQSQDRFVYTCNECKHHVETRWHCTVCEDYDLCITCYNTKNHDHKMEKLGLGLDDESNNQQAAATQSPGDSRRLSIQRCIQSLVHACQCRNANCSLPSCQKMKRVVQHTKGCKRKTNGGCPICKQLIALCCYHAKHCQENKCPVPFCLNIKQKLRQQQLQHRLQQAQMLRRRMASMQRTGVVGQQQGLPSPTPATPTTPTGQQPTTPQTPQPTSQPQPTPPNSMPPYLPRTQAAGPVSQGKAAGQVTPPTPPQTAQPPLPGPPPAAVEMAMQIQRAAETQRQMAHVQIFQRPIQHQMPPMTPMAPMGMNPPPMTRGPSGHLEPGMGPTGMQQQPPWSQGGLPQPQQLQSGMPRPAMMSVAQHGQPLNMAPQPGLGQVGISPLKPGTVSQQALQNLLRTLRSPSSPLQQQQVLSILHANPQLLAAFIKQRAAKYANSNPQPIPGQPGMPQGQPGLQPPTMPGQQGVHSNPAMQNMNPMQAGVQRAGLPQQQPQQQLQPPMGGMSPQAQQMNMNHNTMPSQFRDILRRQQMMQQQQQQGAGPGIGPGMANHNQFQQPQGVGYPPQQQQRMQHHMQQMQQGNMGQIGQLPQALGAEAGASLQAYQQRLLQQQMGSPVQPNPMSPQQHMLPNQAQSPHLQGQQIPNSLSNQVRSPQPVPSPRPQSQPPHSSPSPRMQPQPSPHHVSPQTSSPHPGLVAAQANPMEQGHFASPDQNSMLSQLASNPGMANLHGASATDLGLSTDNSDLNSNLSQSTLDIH
# Test: Immunoblotting of P300 protein levels in LNCaP or 22RV1 cells
# Format: cell-based
# Parameters: LNCaP or 22RV1 cells that express CBP/P300 proteins were treated with GNE-781 or the bivalent compounds; endogenous in cells; host or cells: LNCaP (clone FGC) or 22RV1 cells
# Condition: percentage of inhibition of p300 at 10 nM (Table 2); read-out: Degradation (10 nM)
Quick reference: inhibition at 0.01 µM of the listed items.

Recorded results for 2 molecules are shown here.
CNC(=O)N1CCc2c(c(N3CCCc4cc(-c5cnn(CC(=O)NCCCCCCCCCC(=O)NC(C(=O)N6C[C@H](O)C[C@H]6C(=O)NCc6ccc(-c7scnc7C)cc6)C(C)(C)C)c5)c(C(F)F)cc43)nn2C2CCOCC2)C1 (stereo in doubt) = < 20%
CNC(=O)N1CCc2c(c(N3CCCc4cc(-c5cnn(C)c5)c(C(F)F)cc43)nn2C2CCN(C(=O)CCCCCCCNc3cccc4c3C(=O)N(C3CCC(=O)NC3=O)C4=O)CC2)C1 (centres unmarked) = > 80%

Q) Please supply the value of reported inhibition at 0.01 µM for the item CNC(=O)N1CCc2c(c(N3CCCc4cc(-c5cnn(CC(=O)NCCCCCCNc6cccc7c6C(=O)N(C6CCC(=O)NC6=O)C7=O)c5)c(C(F)F)cc43)nn2C2CCOCC2)C1 (centres unmarked)
A) 20 to 50%

Q) Please supply the value of reported inhibition at 0.01 µM for the item CNC(=O)N1CCc2c(c(N3CCCc4cc(-c5cnn(C)c5)c(C(F)F)cc43)nn2C2CCN(C(=O)CCCCCCNc3ccc4c(c3)C(=O)N(C3CCC(=O)NC3=O)C4=O)CC2)C1 (centres unmarked)
A) > 80%

Q) Please supply the value of reported inhibition at 0.01 µM for the item CNC(=O)N1CCc2c(c(N3CCCc4cc(-c5cnn(C)c5)c(C(F)F)cc43)nn2C2CCN(C(=O)CCCNc3cccc4c3C(=O)N(C3CCC(=O)NC3=O)C4=O)CC2)C1 (centres unmarked)
A) > 80%

###

# System: HEL
# Test: Cell viability assay, HEL
# Assay type: cell-based
# Condition: Homo sapiens, Erythroleukemia
Parameter Measured: IC50

Recorded results for 2 compounds are shown here.
CNC(=O)N1CCc2c(c(N3CCCc4cc(-c5cnn(C)c5)c(C(F)F)cc43)nn2C2CCOCC2)C1 [GNE-781, reference compound] = > 10 µM
CNC(=O)N1CCc2c(c(N3CCCc4cc(-c5cnn(C)c5)c(C(F)F)cc43)nn2C2CCN(C(=O)CCCCCCCNc3ccc4c(c3)C(=O)N(C3CCC(=O)NC3=O)C4=O)CC2)C1 (stereo not drawn) = 0.0161 µM

Let us move to another entry and its IC50.
Q) Please supply the value of reported IC50 for the item CNC(=O)N1CCc2c(c(N3CCCc4cc(-c5cnn(C)c5)c(C(F)F)cc43)nn2C2CCN(C(=O)CCCCCNc3cccc4c3C(=O)N(C3CCC(=O)NC3=O)C4=O)CC2)C1 (stereo not drawn)
A) 0.0378 µM

###

# Assay System: P300 (Homo sapiens, UniProt Q09472)
# Test: Immunoblotting of P300 protein levels in LNCaP or 22RV1 cells
# Type: cell-based
# Parameters: LNCaP or 22RV1 cells that express CBP/P300 proteins were treated with GNE-781 or the bivalent compounds; endogenous in cells; host or cells: LNCaP (clone FGC) or 22RV1 cells
# Condition: percentage of inhibition of p300 at 10 nM (Table 3); read-out: Degradation (10 nM)
Parameter Measured: inhibition at 0.01 µM

Recorded results for 2 compounds are shown here.
CNC(=O)N1CCc2c(c(N3CCCc4cc(-c5cnn(C)c5)c(C(F)F)cc43)nn2C2CCN(C(=O)CCCCCCNc3cccc4c3n(C)c(=O)n4C3CCC(=O)NC3=O)CC2)C1 (stereo not drawn) [P-114] = 20 to 50%
CNC(=O)N1CCc2c(c(N3CCCc4cc(-c5cnn(C)c5)c(C(F)F)cc43)nn2C2CCN(C(=O)CCCCC#Cc3cccc4c3CN(C3CCC(=O)NC3=O)C4=O)CC2)C1 (stereo not drawn) [P-093] = > 80%

Q) Please supply the value of reported inhibition at 0.01 µM for the item CC(=O)N1CCc2c(c(N3CCCc4cc(-c5cnn(CC(=O)NCCCCCCCNc6ccc7c(c6)C(=O)N(C6CCC(=O)NC6=O)C7=O)c5)c(C(F)F)cc43)nn2C2CCOCC2)C1 (stereo not drawn) [P-133]
A) > 80%
